Test system: cyclooxygenase pathway (PGE2)
assayRemarks: biosynthesis of mediators of the cyclooxygenase pathway in vitro on rat polymorphonucleocytes stimulated by ionophore A23187
Type: cell-based
pIC50: −log10 of the molar value.
Returns criterion met if the recorded pIC50 is greater than or equal to 6, and criterion not met otherwise.

{"sampleSmiles": "COc1ccc(-c2sc(CCC(C)(C)CC(=O)N(C)O)cc2-c2ccc(F)cc2)cc1", "labelValue": "criterion not met"}
{"sampleSmiles": "COc1ccc(-c2sc(CCC(=O)N(C)O)cc2-c2ccc(F)cc2)cc1", "labelValue": "criterion met"}
{"sampleSmiles": "COc1ccc(-c2cc(CCC(C)(C)CC(=O)NO)sc2-c2ccc(OC)cc2)cc1", "labelValue": "criterion not met"}
{"sampleSmiles": "COc1ccc(-c2cc(CCC(=O)N(C)O)sc2-c2ccc(OC)cc2)cc1", "labelValue": "criterion met"}
{"sampleSmiles": "COc1ccc(-c2sc(CCCC(=O)N(C)O)cc2-c2ccc(C)cc2)cc1", "labelValue": "criterion met"}

Problem: Is pIC50 at least 6? Consider `COc1ccc(-c2cc(CCCC(=O)N(C)O)sc2-c2ccc(OC)cc2)cc1`
Solution: criterion met

Problem: Is pIC50 at least 6? Consider `CCN(O)C(=O)CCc1cc(-c2ccc(OC)cc2)c(-c2ccc(OC)cc2)s1`
Solution: criterion met
